Source listed as patent US20200262913A1.

Target: T1, recombinant human IL-31 (as used in the NHK STAT3 phosphorylation assay of Example 5) (human, UniProt Q6EBC2 24-164, limits assumed)
T1 sequence: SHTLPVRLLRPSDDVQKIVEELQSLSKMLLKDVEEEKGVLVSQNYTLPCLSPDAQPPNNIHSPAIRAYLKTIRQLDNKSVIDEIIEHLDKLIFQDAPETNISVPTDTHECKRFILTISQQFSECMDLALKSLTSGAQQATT
Test: cell-based or functional assay
Cut-off 10 nM on IC50, IL-31-induced STAT3 phosphorylation in NHK, Exp 8: below means met, at or above means not met.

IC50, IL-31-induced STAT3 phosphorylation in NHK, Exp 8 under 10 nM? Item: humanized 292.12.3.1 construct clone 27 (12VH1-gly + HC(F29L, M69L, R94F) + LC(F71Y)) (antibody, human IgG4, V domains shown) VH: QVQLVQSGAEVKKPGASVKVSCKASGYTLTRYWMQWVRQAPGQGLEWMGAIYPGDGDTRYSQKFQGRVTLTRDTSISTVYMELSSLRSEDTAVYYCAFPDGYYAAPYGMDYWGQGTLVTVSS VL: DIQMTQSPSSLSASVGDRVTITCRASGNIHNYLAWYQQKPGKVPKLLIYNAKTLADGVPSRFSGSGSGTDYTLTISSLQPEDVATYYCQHFWSTPWTFGQGTKVEIKR
met

Is the reported IC50, IL-31-induced STAT3 phosphorylation in NHK, Exp 8 for humanized 292.12.3.1 construct clone 26 (12VH1-gly + HC(fback) + LC(F71Y)) (antibody, human IgG4, V domains shown) VH: QVQLVQSGAEVKKPGASVKVSCKASGYTLTRYWMQWVRQAPGQGLEWMGAIYPGDGDTRYSQKFQGRVTLTADKSISTAYMELSSLRSEDTAVYYCAFPDGYYAAPYGMDYWGQGTLVTVSS VL: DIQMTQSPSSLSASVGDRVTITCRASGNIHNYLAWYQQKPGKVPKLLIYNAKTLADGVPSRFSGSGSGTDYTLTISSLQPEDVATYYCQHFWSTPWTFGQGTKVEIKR strictly below 10 nM?
met

I'd appreciate it if you could check whether humanized 292.12.3.1 construct clone 30 (12VH1-gly + HC(F29L, V78A, R94F) + LC(F71Y)) (antibody, human IgG4, V domains shown) VH: QVQLVQSGAEVKKPGASVKVSCKASGYTLTRYWMQWVRQAPGQGLEWMGAIYPGDGDTRYSQKFQGRVTMTRDTSISTAYMELSSLRSEDTAVYYCAFPDGYYAAPYGMDYWGQGTLVTVSS VL: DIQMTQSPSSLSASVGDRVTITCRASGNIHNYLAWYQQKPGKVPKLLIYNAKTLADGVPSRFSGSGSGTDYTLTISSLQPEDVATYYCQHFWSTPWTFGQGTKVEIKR has IC50, IL-31-induced STAT3 phosphorylation in NHK, Exp 8 smaller than 10 nM.
not met

***
is_below(IC50, IL-31-induced STAT3 phosphorylation in NHK, Exp 8, 10 nM) for humanized 292.12.3.1 construct clone 33 (12VH1(germ)-gly + fback) (antibody, human IgG4, V domains shown) VH: QVQLVQSGAEVKKPGASVKVSCKASGYTLTRYWMQWVRQAPGQGLEWMGAIYPGDGDTRYSQKFQGRVTLTADKSTSTAYMELSSLRSEDTAVYYCAFPDGYYAAPYGMDYWGQGTLVTVSS VL: DIQMTQSPSSLSASVGDRVTITCRASGNIHNYLAWYQQKPGKVPKLLIYNAKTLADGVPSRFSGSRSETQYSLTISSLQPEDVATYYCQHFWSTPWTFGQGTKVEIKR ?
met

State whether 10 nM exceeds IC50, IL-31-induced STAT3 phosphorylation in NHK, Exp 8 recorded for humanized 292.12.3.1 construct clone 9 (12VH1-gly + HC(fback)) (antibody, human IgG4, V domains shown, also called 09) VH: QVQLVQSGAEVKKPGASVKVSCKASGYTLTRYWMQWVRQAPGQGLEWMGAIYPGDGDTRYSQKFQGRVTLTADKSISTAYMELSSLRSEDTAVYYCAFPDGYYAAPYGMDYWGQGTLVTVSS VL: DIQMTQSPSSLSASVGDRVTITCRASGNIHNYLAWYQQKPGKVPKLLIYNAKTLADGVPSRFSGSGSGTDFTLTISSLQPEDVATYYCQHFWSTPWTFGQGTKVEIKR .
met

Just wondering, is IC50, IL-31-induced STAT3 phosphorylation in NHK, Exp 8 of humanized 292.12.3.1 construct clone 25 (12VH1-gly + HC(F29L, R94F) + LC(F71Y)) (antibody, human IgG4, V domains shown) VH: QVQLVQSGAEVKKPGASVKVSCKASGYTLTRYWMQWVRQAPGQGLEWMGAIYPGDGDTRYSQKFQGRVTMTRDTSISTVYMELSSLRSEDTAVYYCAFPDGYYAAPYGMDYWGQGTLVTVSS VL: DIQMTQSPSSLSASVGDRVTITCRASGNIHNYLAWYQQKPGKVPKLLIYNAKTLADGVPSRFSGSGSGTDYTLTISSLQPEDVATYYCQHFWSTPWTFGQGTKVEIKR below 10 nM?
met
